Hello, the source for this data is ChEMBL document CHEMBL1687724, in case you need it.

Test: Cmax in serum of human patient undergoing fibre-optic bronchoscopy at 600 mg, po administered as single dose
Assay type: ADME, organism-based
Parameters: dose 600 mg, route oral

{"Molecule": "CO[C@H]1/C=C/O[C@@]2(C)Oc3c(C)c(O)c4c(O)c(c(/C=N/N5CCN(C)CC5)c(O)c4c3C2=O)NC(=O)/C(C)=C\\C=C\\[C@H](C)[C@H](O)[C@@H](C)[C@@H](O)[C@@H](C)[C@H](OC(C)=O)[C@@H]1C [RIFAMPIN]", "Cmax": "15000 ng/mL"}
